Target: photosensory core of AsphyA (66-610) (Avena sativa, UniProt P06593)
Construct: the PAS-GAF-PHY photosensory core (66–610aa) were also cloned into pPIC3.5K; made in house; host or cells: Pichia pastoris GS115
Sequence (P06593 66-610): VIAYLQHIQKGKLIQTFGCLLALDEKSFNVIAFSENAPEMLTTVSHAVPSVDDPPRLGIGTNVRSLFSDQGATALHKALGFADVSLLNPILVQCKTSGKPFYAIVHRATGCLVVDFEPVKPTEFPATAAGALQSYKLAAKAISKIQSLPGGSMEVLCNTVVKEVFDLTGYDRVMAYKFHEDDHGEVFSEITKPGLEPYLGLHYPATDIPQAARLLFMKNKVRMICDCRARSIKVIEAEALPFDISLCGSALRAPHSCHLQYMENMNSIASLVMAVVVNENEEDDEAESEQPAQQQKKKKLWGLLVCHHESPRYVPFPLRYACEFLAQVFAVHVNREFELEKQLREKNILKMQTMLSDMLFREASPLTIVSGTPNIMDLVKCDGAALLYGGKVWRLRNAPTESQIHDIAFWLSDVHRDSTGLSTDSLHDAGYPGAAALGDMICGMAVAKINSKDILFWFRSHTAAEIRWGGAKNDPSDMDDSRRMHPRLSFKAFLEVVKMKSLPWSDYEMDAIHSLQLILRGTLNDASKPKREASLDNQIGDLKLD
Assay: Binding parameters of ATP by Scatchard plot using BODIPY-FL-ATP
Conditions: Scatchard plot; 0.5 μM protein, BODIPY-FL-ATP 0.5–5 μM, 10 min at 30 °C; read-out: dissociation constant (Kd) of ATP
Reported endpoint: Kd (nM)
Give bare numbers, in nM.

Please report the recorded Kd for CC1=CC(C)=[N+]2C1=Cc1ccc(CCC(=O)NCCNC(=O)O[C@H]3[C@@H](O)[C@H](n4cnc5c(N)ncnc54)O[C@@H]3COP(=O)(O)OP(=O)(O)OP(=O)(O)O)n1[B-]2(F)F [BODIPY-FL-ATP] .
720
